B1: library; numbered along this chain (parent)
chain: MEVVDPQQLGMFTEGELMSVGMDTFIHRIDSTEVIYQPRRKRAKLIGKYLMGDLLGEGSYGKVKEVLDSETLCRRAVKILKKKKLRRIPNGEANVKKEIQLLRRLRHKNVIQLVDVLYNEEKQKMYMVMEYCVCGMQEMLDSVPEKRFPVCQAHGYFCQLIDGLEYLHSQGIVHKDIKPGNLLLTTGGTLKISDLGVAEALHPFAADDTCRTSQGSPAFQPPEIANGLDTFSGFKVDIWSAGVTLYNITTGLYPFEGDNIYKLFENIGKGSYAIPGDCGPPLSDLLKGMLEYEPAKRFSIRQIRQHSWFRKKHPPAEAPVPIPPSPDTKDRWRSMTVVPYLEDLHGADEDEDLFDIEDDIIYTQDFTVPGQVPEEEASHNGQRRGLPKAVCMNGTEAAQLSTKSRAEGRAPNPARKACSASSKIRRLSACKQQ

variants of: B1; test: STK11 functional score (HeLa growth suppression), rescaled enrichment; synonymous median = 1, nonsense median = 0 (normalised score); details: with HeLa; variant type: missense
measured metric: STK11 functional score
Write the value as a bare number.

Examples from the recorded data:
S283F: 0.745
P324A: 1.35
P275V: 0.683
T212H: 1.59
D208A: 1.19

Tell me the measured STK11 functional score of T363W , please.
1.19

Tell me the measured STK11 functional score of L160Q , please.
0.000621

Tell me the measured STK11 functional score of P321A , please.
0.987

Tell me the measured STK11 functional score of T328E , please.
1.5

Tell me the measured STK11 functional score of A198F , please.
0.731

Tell me the measured STK11 functional score of M11W , please.
1.71

Tell me the measured STK11 functional score of N226L , please.
1.08

Tell me the measured STK11 functional score of M125K , please.
1.04
